protocol: Plasma pharmacokinetics in phase I clinical trial NCT04836195 (oral daily dose)
Format: in vivo, human
measurement-context: human, plasma, oral, 100 mg, plasma; 100 mg; Cycle 1 D1; read-out: Tmax (median, range)
quantity-kind: Tmax (h)

chemical-smiles | reported-value
Cc1c(N[S+](=O)(O)c2c(Cl)cc(-c3ccnc(N4CCNCC4)c3)cc2Cl)c(CC(C)C)nn1C | 2

###

protocol: Plasma pharmacokinetics in phase I clinical trial NCT04836195 (oral daily dose)
Format: in vivo, human
measurement-context: human, plasma, oral, 210 mg, plasma; 210 mg; Cycle 1 D15; read-out: t½ (mean, SD) (converted)
quantity-kind: half-life (h)

chemical-smiles | display-unit | reported-value
Cc1c(N[S+](=O)(O)c2c(Cl)cc(-c3ccnc(N4CCNCC4)c3)cc2Cl)c(CC(C)C)nn1C | h | 7.7

###

protocol: Plasma pharmacokinetics in phase I clinical trial NCT04836195 (oral daily dose)
Assay type: in vivo, human
measurement-context: human, plasma, oral, 210 mg, plasma; 210 mg; Cycle 1 D15; read-out: Tmax (median, range)

compound | Tmax, h
Cc1c(N[S+](=O)(O)c2c(Cl)cc(-c3ccnc(N4CCNCC4)c3)cc2Cl)c(CC(C)C)nn1C [PCLX-001] | 2

###

protocol: Plasma pharmacokinetics in phase I clinical trial NCT04836195 (oral daily dose)
Format: in vivo, human
measurement-context: human, plasma, oral, 40 mg, plasma; 40 mg; Cycle 1 D15; read-out: t½ (mean, SD) (converted)
quantity-kind: half-life (h)

chemical-smiles | quantity-kind | reported-value
Cc1c(N[S+](=O)(O)c2c(Cl)cc(-c3ccnc(N4CCNCC4)c3)cc2Cl)c(CC(C)C)nn1C | half-life | 9.7

###

protocol: Plasma pharmacokinetics in phase I clinical trial NCT04836195 (oral daily dose)
Type: in vivo, human
measurement-context: human, plasma, oral, 20 mg, plasma; 20 mg; Cycle 1 D15; read-out: Cmax (mean, SD)

chemical-smiles | Cmax (ng/mL)
Cc1c(N[S+](=O)(O)c2c(Cl)cc(-c3ccnc(N4CCNCC4)c3)cc2Cl)c(CC(C)C)nn1C | 359

###

protocol: Plasma pharmacokinetics in phase I clinical trial NCT04836195 (oral daily dose)
Assay type: in vivo, human
measurement-context: human, plasma, oral, 100 mg, plasma; 100 mg; Cycle 1 D1; read-out: t½ (mean, SD) (converted)

chemical-smiles | display-unit | half-life
Cc1c(N[S+](=O)(O)c2c(Cl)cc(-c3ccnc(N4CCNCC4)c3)cc2Cl)c(CC(C)C)nn1C | h | 8

###

protocol: Plasma, brain and CSF pharmacokinetics and brain tissue accumulation in mice (LC-MS/MS)
Type: in vivo, male C57BL/6 mice
measurement-context: male, C57BL/6, mouse, plasma, oral, 5 mg/kg, 5 mg/kg oral; time point 0.25 h; individual animals; read-out: Plasma Conc.

chemical-smiles | concentration at 0.25 h, µM
Cc1c(N[S+](=O)(O)c2c(Cl)cc(-c3ccnc(N4CCNCC4)c3)cc2Cl)c(CC(C)C)nn1C | 9.59

###

protocol: Plasma pharmacokinetics in phase I clinical trial NCT04836195 (oral daily dose)
Type: in vivo, human
measurement-context: human, plasma, oral, 20 mg, plasma; 20 mg; Cycle 1 D15; read-out: AUC0-24 (mean, SD)
quantity-kind: AUC(0-t)

chemical-smiles | reported-value
Cc1c(N[S+](=O)(O)c2c(Cl)cc(-c3ccnc(N4CCNCC4)c3)cc2Cl)c(CC(C)C)nn1C | 2070 ng·h/mL

###

protocol: Plasma pharmacokinetics in phase I clinical trial NCT04836195 (oral daily dose)
Format: in vivo, human
measurement-context: human, plasma, oral, patients taking proton pump inhibitors (PPI); read-out: maximum Tmax value observed
quantity-kind: Tmax

chemical-smiles | reported-value
Cc1c(N[S+](=O)(O)c2c(Cl)cc(-c3ccnc(N4CCNCC4)c3)cc2Cl)c(CC(C)C)nn1C | ~8 h

###

protocol: Plasma, brain and CSF pharmacokinetics and brain tissue accumulation in mice (LC-MS/MS)
Type: in vivo, male C57BL/6 mice
measurement-context: male, C57BL/6, mouse, brain/plasma; 5 mg/kg oral; time point 1.00 h; read-out: B/P-Kp (brain to plasma ratio)

compound | Kp at 1 h
Cc1c(N[S+](=O)(O)c2c(Cl)cc(-c3ccnc(N4CCNCC4)c3)cc2Cl)c(CC(C)C)nn1C [PCLX-001] | 0.01

###

protocol: Plasma, brain and CSF pharmacokinetics and brain tissue accumulation in mice (LC-MS/MS)
Format: in vivo, male C57BL/6 mice
measurement-context: male, C57BL/6, mouse; oral gavage 5 mg/kg; CSF; read-out: C0/Cmax
quantity-kind: Cmax

chemical-smiles | reported-value
Cc1c(N[S+](=O)(O)c2c(Cl)cc(-c3ccnc(N4CCNCC4)c3)cc2Cl)c(CC(C)C)nn1C | 36.6 nM

###

protocol: Plasma, brain and CSF pharmacokinetics and brain tissue accumulation in mice (LC-MS/MS)
Assay type: in vivo, male C57BL/6 mice
measurement-context: male, C57BL/6, mouse, plasma, oral, 5 mg/kg, 5 mg/kg oral; time point 24.00 h; individual animals; read-out: Plasma Conc.
quantity-kind: concentration at 24 h (nM)

compound | quantity-kind | display-unit | reported-value
Cc1c(N[S+](=O)(O)c2c(Cl)cc(-c3ccnc(N4CCNCC4)c3)cc2Cl)c(CC(C)C)nn1C [PCLX-001] | concentration at 24 h | nM | 6.39

###

protocol: Plasma pharmacokinetics in phase I clinical trial NCT04836195 (oral daily dose)
Assay type: in vivo, human
measurement-context: human, plasma, oral, 40 mg, plasma; 40 mg; Cycle 1 D15; read-out: AUC0-24 (mean, SD)

chemical-smiles | display-unit | AUC(0-t)
Cc1c(N[S+](=O)(O)c2c(Cl)cc(-c3ccnc(N4CCNCC4)c3)cc2Cl)c(CC(C)C)nn1C | ng·h/mL | 7060

###

protocol: Plasma pharmacokinetics in phase I clinical trial NCT04836195 (oral daily dose)
Type: in vivo, human
measurement-context: human, plasma, oral, 20 mg, plasma; 20 mg; Cycle 1 D15; read-out: Tmax (median, range)
quantity-kind: Tmax

molecule | reported-value
Cc1c(N[S+](=O)(O)c2c(Cl)cc(-c3ccnc(N4CCNCC4)c3)cc2Cl)c(CC(C)C)nn1C [PCLX-001] | 1 h

###

protocol: Plasma, brain and CSF pharmacokinetics and brain tissue accumulation in mice (LC-MS/MS)
Format: in vivo, male C57BL/6 mice
measurement-context: male, C57BL/6, mouse, brain, oral, 5 mg/kg, 5 mg/kg oral; time point 2.00 h; read-out: Mean Brain Conc.
quantity-kind: concentration at 2 h (nM)

compound | reported-value
Cc1c(N[S+](=O)(O)c2c(Cl)cc(-c3ccnc(N4CCNCC4)c3)cc2Cl)c(CC(C)C)nn1C [PCLX-001] | 157

###

protocol: Plasma, brain and CSF pharmacokinetics and brain tissue accumulation in mice (LC-MS/MS)
Type: in vivo, male C57BL/6 mice
measurement-context: male, C57BL/6, mouse; oral gavage 5 mg/kg; Plasma; read-out: T½ (converted)
quantity-kind: half-life

compound | reported-value
Cc1c(N[S+](=O)(O)c2c(Cl)cc(-c3ccnc(N4CCNCC4)c3)cc2Cl)c(CC(C)C)nn1C [PCLX-001] | 1.77 h

###

protocol: Plasma, brain and CSF pharmacokinetics and brain tissue accumulation in mice (LC-MS/MS)
Assay type: in vivo, male C57BL/6 mice
measurement-context: male, C57BL/6, mouse, plasma, oral, 5 mg/kg, 5 mg/kg oral; time point 24.00 h; read-out: Mean Plasma Conc.
quantity-kind: concentration at 24 h (nM)

chemical-smiles | quantity-kind | reported-value
Cc1c(N[S+](=O)(O)c2c(Cl)cc(-c3ccnc(N4CCNCC4)c3)cc2Cl)c(CC(C)C)nn1C | concentration at 24 h | 5.63

###

protocol: Plasma, brain and CSF pharmacokinetics and brain tissue accumulation in mice (LC-MS/MS)
Type: in vivo, male C57BL/6 mice
measurement-context: male, C57BL/6, mouse, plasma, oral, 5 mg/kg, 5 mg/kg oral; time point 1.00 h; individual animals; read-out: Plasma Conc.
quantity-kind: concentration at 1 h (µM)

compound | quantity-kind | display-unit | reported-value
Cc1c(N[S+](=O)(O)c2c(Cl)cc(-c3ccnc(N4CCNCC4)c3)cc2Cl)c(CC(C)C)nn1C [PCLX-001] | concentration at 1 h | µM | 7.24

###

protocol: Plasma pharmacokinetics in phase I clinical trial NCT04836195 (oral daily dose)
Assay type: in vivo, human
measurement-context: human, plasma, oral, 100 mg, plasma; 100 mg; Cycle 1 D15; read-out: Tmax (median, range)
Excerpt: A phase I, multicenter, nonrandomized, open-label study of zelenirstat, entitled “Phase I Trial of PCLX-001 in B-cell Non-Hodgkin Lymphoma and Advanced Solid Malignancies” (reference 6), is being conducted and is registered at clinicaltrials.gov as NCT04836195. […] PCLX-001/zelenirstat plasma concentrations were quantified using a validated ultra-performance liquid chromatography with tandem mass spectrometry detection and analyzed using a nonlinear mixed-effects model.

chemical-smiles | display-unit | Tmax
Cc1c(N[S+](=O)(O)c2c(Cl)cc(-c3ccnc(N4CCNCC4)c3)cc2Cl)c(CC(C)C)nn1C | h | 4

// provenance: patent US20260216176A1
